The measured values listed here are drawn from patent US20220153821A1.

# reported Kd; entries follow
Tested Target: T1, recombinant human tau (human, UniProt P10636-6 1-383, limits assumed)
T1 construct: also called recombinant tau
T1 sequence (P10636 other isoform, or with tags, fused parts or gaps limits assumed): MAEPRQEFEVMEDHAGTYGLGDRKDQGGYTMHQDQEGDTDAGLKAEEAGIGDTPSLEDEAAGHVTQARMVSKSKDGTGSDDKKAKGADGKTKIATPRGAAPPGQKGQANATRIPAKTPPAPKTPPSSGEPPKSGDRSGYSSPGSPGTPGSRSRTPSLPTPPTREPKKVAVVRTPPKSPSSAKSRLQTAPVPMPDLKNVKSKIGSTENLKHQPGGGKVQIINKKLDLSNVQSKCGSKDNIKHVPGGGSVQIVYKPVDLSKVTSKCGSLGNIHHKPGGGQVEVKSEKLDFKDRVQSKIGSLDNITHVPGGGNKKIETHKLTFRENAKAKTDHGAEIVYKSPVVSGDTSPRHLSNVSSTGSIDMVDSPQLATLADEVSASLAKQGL
Assay Info: SPR, Biacore T200, antibody captured by anti-human antibody, tau as analyte, single cycle, 1:1 fit
Numbers only here, please. The scale is nM.

Consider the reported Kd for these binders:
Req: Sample Hu3D6VHvb7 / Hu3D6VLvb3 (antibody, V domains shown, Humanized 3D6 variant, expressed as intact antibody in HEK-293 cells; also called VHvb7/VLvb3) VH: EVQLVQSGAEVVKPGATVKISCKASGFTIKDYYLHWVRQRPGKGLEWIGWIDPEDGETVYDPKFQGRVTITADTSTDTAYMELSSLRSEDTAVYYCSTLDFWGQGTLVTVSS VL: DVVMTQSPLSLSVTLGEPASISCRSSQSLLDSDGKTYLNWLQQRPGQSPRRLIYLVSKLDSGVPDRFSGSGSGTDFTLKISRVEAEDVGVYYCWQGTHFPYTFGQGTKLEIKR — what was its Kd?
Resp: 0.209

Req: Same question, Hu3D6VHvb5 / Hu3D6VLvb3 (antibody, V domains shown, Humanized 3D6 variant, expressed as intact antibody in HEK-293 cells; also called VHvb5/VLvb3) VH: EVQLVQSGAEVVKPGATVKISCKASGFTIKDYYLHWVRQRPGKGLEWIGWIDPEDGETIYDPKFQGRVTITADTSTDTAYMELSSLRSEDTAVYYCSTLDFWGQGTLVTVSS VL: DVVMTQSPLSLSVTLGEPASISCRSSQSLLDSDGKTYLNWLQQRPGQSPRRLIYLVSKLDSGVPDRFSGSGSGTDFTLKISRVEAEDVGVYYCWQGTHFPYTFGQGTKLEIKR this time
Resp: 1.4

Req: Next binder: Hu3D6VHvb4 / Hu3D6VLvb3 (antibody, V domains shown, Humanized 3D6 variant, expressed as intact antibody in HEK-293 cells; also called VHvb4/VLvb3) VH: EVQLVQSGAEVVKPGATVKISCKASGFTIKDYYLHWVRQRPGKGLEWIGWIDPENGDTIYDPKFQGRVTITADTSTDTAYMELSSLRSEDTAVYYCSTLDFWGQGTLVTVSS VL: DVVMTQSPLSLSVTLGEPASISCRSSQSLLDSDGKTYLNWLQQRPGQSPRRLIYLVSKLDSGVPDRFSGSGSGTDFTLKISRVEAEDVGVYYCWQGTHFPYTFGQGTKLEIKR
Resp: 3.74

Req: Again, but for Hu3D6VHvb3 / Hu3D6VLvb3 (antibody, V domains shown, Humanized 3D6 variant, expressed as intact antibody in HEK-293 cells; also called VHvb3/VLvb3) VH: EVQLVQSGAEVVKPGATVKISCKASGFNIKDYYLHWVRQRPGKGLEWIGWIDPENGDTIYDPKFQGRATITADTSTDTAYMELSSLRSEDTAVYYCSTLDFWGQGTLVTVSS VL: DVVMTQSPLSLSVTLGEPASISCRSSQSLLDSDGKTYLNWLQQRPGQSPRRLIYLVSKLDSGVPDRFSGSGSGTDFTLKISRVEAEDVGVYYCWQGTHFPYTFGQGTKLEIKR
Resp: 1.13

Continuing:
Req: Returns the measured Kd for the input binder. Input: Hu3D6VHvb6 / Hu3D6VLvb3 (antibody, V domains shown, Humanized 3D6 variant, expressed as intact antibody in HEK-293 cells; also called VHvb6/VLvb3) VH: EVQLVQSGAEVVKPGATVKISCKASGFTIKDYYLHWVRQRPGKGLEWIGWIDPEDGETVYDPKFQGRVTITADTSTDTAYMELSSLRSEDTAVYFCSTLDFWGQGTLVTVSS VL: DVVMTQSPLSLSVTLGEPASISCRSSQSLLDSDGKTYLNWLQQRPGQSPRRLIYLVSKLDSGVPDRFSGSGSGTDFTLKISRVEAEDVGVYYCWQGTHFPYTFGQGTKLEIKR
Resp: 0.152

Req: Another binder to check: Hu3D6VHvb2 / Hu3D6VLvb3 (antibody, V domains shown, Humanized 3D6 variant, expressed as intact antibody in HEK-293 cells; also called VHvb2/VLvb3) VH: EVQLVQSGAEVVKPGASVKISCKASGFNIKDYYLHWVRQRPGKGLEWIGWIDPENGDTVYDPKFQGRATITADTSTDTAYLELSSLTSEDTAVYFCSTLDFWGQGTLVTVSS VL: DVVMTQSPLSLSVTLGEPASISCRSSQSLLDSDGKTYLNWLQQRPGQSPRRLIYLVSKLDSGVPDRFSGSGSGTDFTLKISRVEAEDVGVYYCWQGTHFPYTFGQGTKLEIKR
Resp: 0.19
